What Average inhibition male (%) was measured for each of the following?
System: P. falciparum male gametocytes
Experiment: P. falciparum Dual Gamete Formation Assay (PfDGFA), male readout (exflagellation)
Assay type: cell-based, Plasmodium falciparum NF54
Details: 2µM, 24h preincubation with gametocytes prior to induction of gametogenesis; average of replicates

Challenge: Please report Average inhibition male (%) with P. falciparum male gametocytes for item CC(CCCCCC(=O)Nc1ccc(CC(C)NCCc2cccc(Cl)c2)cc1)NCCc1cccc(Cl)c1 (stereo not drawn) [TCMDC-139800] .
Response given: 45.2%

Challenge: Please report Average inhibition male (%) with P. falciparum male gametocytes for item O=C(Nc1ccc(C(=O)OCC2CCCCC2)cc1)N[C@@H](Cc1ccc(O)cc1)C(=O)NC1CCN(Cc2ccc(O)cc2)C1.O=C(O)C(F)(F)F (stereo partly drawn) [TCMDC-135357] .
Response given: -19.1%

Challenge: Please report Average inhibition male (%) with P. falciparum male gametocytes for item COC(=O)c1ccc(-c2ccc(-c3cccnc3)cc2C)cc1 [TCMDC-139074] .
Response given: 18.8%

Challenge: Please report Average inhibition male (%) with P. falciparum male gametocytes for item COc1ccc(CNC2Cc3ccccc3C2)cc1-c1ccc(OC)c(S(=O)(=O)NCCN2CCCC2)c1.O=C(O)C(F)(F)F [TCMDC-132251] .
Response given: -9.5%

Challenge: Please report Average inhibition male (%) with P. falciparum male gametocytes for item O=C(c1ccc([N+](=O)[O-])o1)N1CCN(c2nc3c(F)cc(F)cc3s2)CC1 [TCMDC-125149] .
Response given: 6.8%

Challenge: Please report Average inhibition male (%) with P. falciparum male gametocytes for item Cc1cccc2nc(-c3ccc(-c4cccc(CNC5CCN(C)CC5)c4)s3)[nH]c12.O=C(O)C(F)(F)F [TCMDC-132736] .
Response given: 63.8%

Challenge: Please report Average inhibition male (%) with P. falciparum male gametocytes for item COc1cc(CNCCCCCCNCc2cc(OC)cc3ccccc23)c2ccccc2c1.CS(=O)(=O)O [TCMDC-137823] .
Response given: 27.1%

Challenge: Please report Average inhibition male (%) with P. falciparum male gametocytes for item COc1ccc2nccc([C@H](O)CN3CCC(NCc4ccc5c(c4C)OCCO5)CC3)c2n1.Cl [TCMDC-136066] .
Response given: -9.6%

Challenge: Please report Average inhibition male (%) with P. falciparum male gametocytes for item Cc1cc(-c2cccc(CNC3CCN(C)CC3)c2)ccc1S(=O)(=O)NCc1ccccc1.O=C(O)C(F)(F)F [TCMDC-132379] .
Response given: 43.8%

Challenge: Please report Average inhibition male (%) with P. falciparum male gametocytes for item CN(C)CCCNCc1ccc(-c2ccc(C(F)(F)F)cc2)cc1 [TCMDC-140011] .
Response given: 54.2%

Challenge: Please report Average inhibition male (%) with P. falciparum male gametocytes for item COc1cc(C(=O)N2CCN(C(C)C)CC2)ccc1CN(C)CCCCN1CCN(c2cccc(Cl)c2Cl)CC1.Cl [TCMDC-136506] .
Response given: 24.1%

Challenge: Please report Average inhibition male (%) with P. falciparum male gametocytes for item CN(C)CCCNc1nccc(N(C)c2ccc(NC(=O)Nc3cc(C(F)(F)F)ccc3F)cc2)n1.O=C(O)C(F)(F)F [TCMDC-141633] .
Response given: 62.2%

Challenge: Please report Average inhibition male (%) with P. falciparum male gametocytes for item Nc1ccc2[nH]cc(C3CCN(CCC4CCN(C(=O)/C=C/c5ccc(Cl)c(Cl)c5)CC4)CC3)c2n1 [TCMDC-140062] .
Response given: 34.7%

Challenge: Please report Average inhibition male (%) with P. falciparum male gametocytes for item COc1cccc(CCN(Cc2ccccc2-c2ccc(CNC3CC(C)(C)NC(C)(C)C3)cc2)C(=O)NC2CCCCC2)c1.Cl [TCMDC-141577] .
Response given: 1.5%

Challenge: Please report Average inhibition male (%) with P. falciparum male gametocytes for item CNCCNCc1cccc(-c2ccc(-c3nc4cc(C(F)(F)F)ccc4[nH]3)s2)c1.O=C(O)C(F)(F)F [TCMDC-132830] .
Response given: 36.6%
